experimental_target: 72 kDa type IV collagenase (Homo sapiens, UniProt P08253)
Sequence (P08253 whole entry): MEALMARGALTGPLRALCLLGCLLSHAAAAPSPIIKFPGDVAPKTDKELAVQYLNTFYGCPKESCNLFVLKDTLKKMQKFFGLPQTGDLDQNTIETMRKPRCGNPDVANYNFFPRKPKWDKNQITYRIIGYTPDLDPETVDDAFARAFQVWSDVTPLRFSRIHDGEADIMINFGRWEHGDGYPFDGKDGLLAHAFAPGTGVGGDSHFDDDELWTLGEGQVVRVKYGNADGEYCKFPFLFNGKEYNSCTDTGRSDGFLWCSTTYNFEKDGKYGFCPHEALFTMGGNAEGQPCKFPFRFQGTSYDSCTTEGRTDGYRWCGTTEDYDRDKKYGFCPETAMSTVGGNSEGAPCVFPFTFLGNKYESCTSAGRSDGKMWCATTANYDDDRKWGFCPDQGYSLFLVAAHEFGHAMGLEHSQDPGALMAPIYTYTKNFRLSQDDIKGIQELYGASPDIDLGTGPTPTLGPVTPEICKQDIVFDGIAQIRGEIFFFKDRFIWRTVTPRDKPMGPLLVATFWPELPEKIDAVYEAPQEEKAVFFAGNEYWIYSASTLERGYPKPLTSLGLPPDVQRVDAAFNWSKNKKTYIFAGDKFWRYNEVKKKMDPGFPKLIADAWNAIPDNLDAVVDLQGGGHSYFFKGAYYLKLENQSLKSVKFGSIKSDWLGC
pIC50: −log10 of the molar value.
observation_type: pIC50

>>> df
                                test_smiles                       experimental_target  comparative_sign  recorded_result
0  O=C(O)[C@@H](Cc1c[nH]c2ccccc12)NS(=O)(=O)c1ccc(C#Cc2ccccc2[N+](=O)[O-])s1  72 kDa type IV collagenase (Homo sapiens, UniProt P08253)                 <             6.00
1  O=C(O)[C@@H](Cc1c[nH]c2ccccc12)NS(=O)(=O)c1ccc(Oc2ccccc2)cc1  72 kDa type IV collagenase (Homo sapiens, UniProt P08253)                 =             7.30
2  CC(C)[C@@H](NS(=O)(=O)c1ccc(Oc2ccccc2)cc1)C(=O)NO  72 kDa type IV collagenase (Homo sapiens, UniProt P08253)                 =             8.70
3  O=C(O)c1ccc(C#Cc2ccc(S(=O)(=O)N[C@H](Cc3c[nH]c4ccccc34)C(=O)O)cc2)cc1  72 kDa type IV collagenase (Homo sapiens, UniProt P08253)                 <             6.00

###

Data export: IC50 values recorded with Matrix metalloproteinase-9 (Homo sapiens, UniProt P14780).
Sequence (P14780 whole entry): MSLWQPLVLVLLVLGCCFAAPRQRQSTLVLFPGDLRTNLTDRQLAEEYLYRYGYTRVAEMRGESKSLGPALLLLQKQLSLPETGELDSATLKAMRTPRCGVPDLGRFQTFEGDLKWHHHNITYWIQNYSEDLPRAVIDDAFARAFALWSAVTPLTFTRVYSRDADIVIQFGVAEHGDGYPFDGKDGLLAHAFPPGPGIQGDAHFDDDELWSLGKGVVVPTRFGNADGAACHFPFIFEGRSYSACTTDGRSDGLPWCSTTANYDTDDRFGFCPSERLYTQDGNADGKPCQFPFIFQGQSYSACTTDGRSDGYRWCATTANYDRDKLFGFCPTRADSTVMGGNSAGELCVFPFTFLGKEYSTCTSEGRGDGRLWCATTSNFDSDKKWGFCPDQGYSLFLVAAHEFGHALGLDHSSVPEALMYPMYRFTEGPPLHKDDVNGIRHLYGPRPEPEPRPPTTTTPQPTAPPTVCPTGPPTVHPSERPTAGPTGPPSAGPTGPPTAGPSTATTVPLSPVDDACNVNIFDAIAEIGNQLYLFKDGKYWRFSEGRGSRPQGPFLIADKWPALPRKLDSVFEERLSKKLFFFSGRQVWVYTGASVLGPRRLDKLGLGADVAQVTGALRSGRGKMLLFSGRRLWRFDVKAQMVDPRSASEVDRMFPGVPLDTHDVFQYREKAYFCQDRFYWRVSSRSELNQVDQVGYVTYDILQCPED
observation_type: IC50

                                test_smiles                       experimental_target  recorded_result
0  O=C(O)[C@@H](Cc1c[nH]c2ccccc12)NS(=O)(=O)c1ccc2oc3ccccc3c2c1  Matrix metalloproteinase-9 (Homo sapiens, UniProt P14780)          > 10 µM
1  O=C(N[C@H](Cc1ccccc1)C(=O)NO)c1ccc(-c2ccccc2)cc1  Matrix metalloproteinase-9 (Homo sapiens, UniProt P14780)          > 50 µM
2  O=C(c1ccccc1)c1ccc(S(=O)(=O)N[C@H](Cc2c[nH]c3ccccc23)C(=O)O)cc1  Matrix metalloproteinase-9 (Homo sapiens, UniProt P14780)          > 10 µM
3  O=C(O)[C@@H](Cc1c[nH]c2ccccc12)NS(=O)(=O)c1ccc(Cc2ccccc2)cc1  Matrix metalloproteinase-9 (Homo sapiens, UniProt P14780)          > 10 µM
4  O=C(O)[C@@H](Cc1c[nH]c2ccccc12)NS(=O)(=O)c1ccc2ccccc2c1  Matrix metalloproteinase-9 (Homo sapiens, UniProt P14780)          > 10 µM

###

experimental_target: 72 kDa type IV collagenase (Homo sapiens)
pIC50: −log10 of the molar value.
observation_type: pIC50

In [3]: df
Out[3]:
                                test_smiles  observation_type  comparative_sign  recorded_result
0  O=C(O)[C@@H](Cc1c[nH]c2ccccc12)NS(=O)(=O)c1ccccc1             pIC50                 <             6.00
1  O=C(O)[C@@H](Cc1c[nH]c2ccccc12)NS(=O)(=O)c1ccc(-c2nnn(-c3ccc(Br)cc3)n2)cc1             pIC50                 =             8.08
2  COc1ccc(C#Cc2ccc(S(=O)(=O)N[C@H](Cc3ccccc3)C(=O)O)s2)cc1             pIC50                 =             8.00
3  COc1ccc(-c2ccc(S(=O)(=O)N[C@@H](C(=O)O)C(C)C)cc2)cc1             pIC50                 >             7.00
